# tested_target: T1, extracellular domain (ECD) of cyno CD47 (4aa-126aa) with C-terminal 6xHis tag (cynomolgus monkey, UniProt Q08722 19-140 (human entry), limits assumed)
# T1 construct: also called cynomolgus monkey CD47
# T1 chain: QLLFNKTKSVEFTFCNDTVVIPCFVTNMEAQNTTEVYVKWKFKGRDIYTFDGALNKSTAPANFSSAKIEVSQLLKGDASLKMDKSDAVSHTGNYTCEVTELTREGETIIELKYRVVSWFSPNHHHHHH
# measurement_description: ELISA, coated recombinant CD47, FIG. 4A-4B

binder	binding result
hu.1D15E11-V1 (antibody, human IgG1, kappa, V domains shown, Humanised variant of 1D15E11; also called hu.1D15E11-Vi; hu.1D15E11 variants) VH: EVQLVQSGAEVKKPGASVKVSCKASGYTFTSYVMHWVRQAPGQRLEWMGYIDPYNEGTKYNEKFKGRVTITRDTSASTAYMELSSLRSEDTAVYYCSRGGMARRSFDYWGQGTLVTVSS VL: DIQMTQSPSSLSASVGDRVTITCLASQTIGTWLTWYQQKPGKAPKLLIYAATTLAEGVPSRFSGSGSGTDFTLTISSLQPEDFATYYCQQLYSTPWTFGGGTKVEIKR	binds
hu.1D15E11-V4 (antibody, human IgG1, kappa, V domains shown, Humanised variant of 1D15E11; also called hu.1D15E11 variants) VH: EVQLVQSGAEVKKPGASVKVSCKASGYTFTSYVMHWVRQAPGQRLEWMGYIDPYNEGTKYNEKFKGRVTITRDTSASTAYMELSSLRSEDTAVYYCSRGGVARRSFDYWGQGTLVTVSS VL: DIQMTQSPSSLSASVGDRVTITCLASQTIGTWLTWYQQKPGKAPKLLIYAATTLAEGVPSRFSGSGSGTDFTLTISSLQPEDFATYYCQQLYSTPWTFGGGTKVEIKR	binds
hu.1D15E11-V3 (antibody, human IgG1, kappa, V domains shown, Humanised variant of 1D15E11; also called hu.1D15E11 variants) VH: EVQLVQSGAEVKKPGASVKVSCKASGYTFTSYVMHWVRQAPGQRLEWMGYIDPYNEGTKYNEKFKGRVTITRDTSASTAYMELSSLRSEDTAVYYCSRGGIARRSFDYWGQGTLVTVSS VL: DIQMTQSPSSLSASVGDRVTITCLASQTIGTWLTWYQQKPGKAPKLLIYAATTLAEGVPSRFSGSGSGTDFTLTISSLQPEDFATYYCQQLYSTPWTFGGGTKVEIKR	binds
